FYI, the data here is from patent US5430062A.

Test system: SF-295 CNS cancer
Assay: Cytotoxicity, SF-295
Conditions: read-out: cytotoxicity GI50, SF-295; 50% growth inhibition; average of two determinations; 8640 min; Hydrochloride, 8640 min
Where a name gives a salt, the structure may show the parent alone.
A collection of molecules and their measured GI50
parameter-measured: GI50 (nM)

CCOc1ccc(NCc2cc(OC)c(OC)c(OC)c2)cc1 [110d, Hydrochloride]
418
CCc1ccc(NCc2cc(OC)c(OC)c(OC)c2)cc1 [110b, Hydrochloride]
339
COc1cc(CNc2ccc(C)cc2)cc(OC)c1OC.Cl [110a, Hydrochloride]
233
COc1cc(CNc2ccc(SC)cc2)cc(OC)c1OC [110e, Hydrochloride]
3410
COc1ccc(NCc2cc(OC)c(OC)c(OC)c2)cc1 [110c, Hydrochloride]
2320

====

Test system: MCF-7 breast carcinoma
Assay: MTT cytotoxicity assay, MCF-7
Details: Homo sapiens, MCF7, […], read-out: Cytotoxicity ED50, MCF-7
pIC50: −log10 of the molar value.
A collection of compounds and their measured pIC50
parameter-measured: pIC50

COc1ccc(Cc2cc(OC)c(OC)c(OC)c2)cc1 [compound 29]
7.72
COc1cc(OC)c(OC)cc1/C=C/c1ccccc1 [6w]
5.07
COc1ccc(/C=C\c2ccc(OC)c(OC)c2OC)cc1 [5d]
6.64

====

System: tubulin
Assay: Inhibition of [3H]colchicine binding to tubulin (DEAE-filter)
Parameters: species or system bovine
Settings: 1 μM tubulin, 5 μM [3H]colchicine, 5 μM inhibitor, 10 min, 37° C.
A collection of molecules and their measured Colchicine binding % inhibition
parameter-measured: Colchicine binding % inhibition

COc1ccc(/C=C\c2cc(OC)c(OC)c(OC)c2)c(Cl)c1
73%
COc1cc(/C=C\c2ccc(OC(C)=O)cc2)cc(OC)c1OC
24%
COc1cc(/C=C\c2ccc(N(C)C)cc2)cc(OC)c1OC
83%
COc1cc(/C=C\c2ccc(Cl)cc2)cc(OC)c1OC
55%
COc1ccc(CCc2cc(OC)c(OC)c(OC)c2)cc1
65%
COc1cc(CCc2ccc(N(C)C)cc2)cc(OC)c1OC
31%
COc1ccc(CCc2cc(OC)c(OC)c(OC)c2)cc1O [compound 1c, reference compound]
79%
COc1ccc(NCc2cc(OC)c(OC)c(OC)c2)cc1 [compound 12a]
34%

====

Test system: MCF-7 breast carcinoma
Test: MTT cytotoxicity assay, MCF-7
Conditions: Homo sapiens, MCF7, […], read-out: Cytotoxicity ED50, MCF-7
A collection of compounds and their measured IC50
parameter-measured: IC50 (µM)

COc1cc(CCc2ccc(OCCN(C)C)cc2)cc(OC)c1OC [17f]
10.3
COc1cccc(CCc2cc(OC)c(OC)c(OC)c2)c1 [8b]
12.4
COc1ccc(/C=C\c2cc(OC)c(OC)c(OC)c2)cc1O [compound 1a, reference compound]
3.8e-06
COc1ccccc1/C=C\c1cc(OC)c(OC)c(OC)c1 [compound 5c]
1.3
COc1ccc(C(C#N)Cc2cc(OC)c(OC)c(OC)c2)cc1 (stereo not shown) [compound 17i]
14.3

====

System: CAKI-1 renal cancer
Assay: Cytotoxicity, CAKI-1
Conditions: read-out: cytotoxicity GI50, CAKI-1, 50% growth inhibition, average of two determinations, 8640 min
parameter-measured: GI50 (µM)

COc1ccc(NCc2cc(OC)c(OC)c(OC)c2)cc1 [109c]
0.458
COc1cc(CNc2ccc(SC)cc2)cc(OC)c1OC [109e]
32

====

A collection of molecules and their measured GI50
Tested on: HL-60 (TB) leukemia
Assay: Cytotoxicity, HL-60(TB) leukemia
Settings: read-out: cytotoxicity GI50, HL-60(TB); 50% growth inhibition; average of two determinations; 8640 min
parameter-measured: GI50 (µM)

COc1cc(CNc2ccc(C)cc2)cc(OC)c1OC [109a]
0.122
CCOc1ccc(NCc2cc(OC)c(OC)c(OC)c2)cc1 [109d]
0.296
CCc1ccc(NCc2cc(OC)c(OC)c(OC)c2)cc1 [109b]
0.168
CCCc1ccc(N=Cc2cc(OC)c(OC)c(OC)c2)cc1 [108g]
22.6
COc1cc(CNc2ccc(SC)cc2)cc(OC)c1OC [109e]
3.7
COc1ccc(NCc2cc(OC)c(OC)c(OC)c2)cc1 [109c]
0.115

====

A collection of compounds and their measured Colchicine binding % inhibition
Test system: tubulin
Test: Inhibition of [3H]colchicine binding to tubulin (DEAE-filter)
Parameters: species or system bovine
Conditions: 1 μM tubulin, 5 μM [3H]colchicine, 5 μM inhibitor, 10 min, 37° C.
parameter-measured: Colchicine binding % inhibition (%)

COc1cc(/C=C\c2ccccc2)cc(OC)c1OC
14
COc1cccc(/C=C\c2cc(OC)c(OC)c(OC)c2)c1
50
COc1cc([C@@H]2c3cc4c(cc3[C@H](O)[C@H]3COC(=O)[C@H]23)OCO4)cc(OC)c1OC [Podophyllotoxin, reference compound]
88
COc1ccc(NCc2cc(OC)cc(OC)c2)cc1 [compound 12d]
39
COc1cc(/C=C\c2ccc(Br)cc2)cc(OC)c1OC
73

====

A collection of compounds and their measured pIC50
Test system: five cancer cell cultures
Experiment: MTT cytotoxicity assay, five cancer cell cultures taken together
Conditions: […], read-out: cytotoxicity ED50, in at least four cell lines
pIC50: −log10 of the molar value.
parameter-measured: pIC50

COc1ccc(CC(C#N)c2cc(OC)c(OC)c(OC)c2)cc1 (centres unmarked) [compound 17h]
> 6.00
CCOc1ccc(CCc2cc(OC)c(OC)c(OC)c2)cc1 [17a]
> 6.00

====

A collection of molecules and their measured GI50
Tested on: OVCAR-3 ovarian cancer
Assay: Cytotoxicity, OVCAR-3
Conditions: read-out: cytotoxicity GI50, OVCAR-3, 50% growth inhibition, average of two determinations, 8640 min
parameter-measured: GI50 (nM)

CCc1ccc(NCc2cc(OC)c(OC)c(OC)c2)cc1 [109b]
283
COc1ccc(NCc2cc(OC)c(OC)c(OC)c2)cc1 [109c]
363
CCOc1ccc(NCc2cc(OC)c(OC)c(OC)c2)cc1 [109d]
340
COc1cc(CNc2ccc(SC)cc2)cc(OC)c1OC [109e]
5930

====

Tested on: MCF-7 breast carcinoma
Experiment: MTT cytotoxicity assay, MCF-7
Conditions: Homo sapiens, MCF7, […], read-out: Cytotoxicity ED50, MCF-7
parameter-measured: IC50 (µM)

COc1ccc(/C=C(/C(=O)O)c2cc(OC)c(OC)c(OC)c2)cc1 [compound 23a]
12.8
COc1ccc(CC(C#N)c2cc(OC)c(OC)c(OC)c2)cc1 (centres unmarked) [compound 17h]
0.014
COc1ccc(C(O)c2cc(OC)c(OC)c(OC)c2)cc1 (centres unmarked) [compound 28]
1.9

====

A collection of molecules and their measured IC50
Tested on: MLM melanoma
Assay: MTT cytotoxicity assay, MLM
Details: […], read-out: Cytotoxicity ED50, MLM, MLM; MTT, six days
parameter-measured: IC50 (nM)

COc1ccc(/C=C/c2cc(OC)c(OC)c(OC)c2)cc1
2070
COc1ccc(/C=C\c2cc(OC)c(OC)c(OC)c2)c(Cl)c1
140
COc1cccc(/C=C\c2cc(OC)c(OC)c(OC)c2)c1
1400

====

Tested on: tubulin
Experiment: Inhibition of tubulin polymerization (turbidimetry)
Type: biochemical, bovine
Details: second series (Tables V-VII, IX); read-out: Inhibition of Tubulin Polymerization IC50 (±S.D.)
pIC50: −log10 of the molar value.
A collection of compounds and their measured pIC50
parameter-measured: pIC50

COc1cc(/C=C\c2ccc(C(C)(C)C)cc2)cc(OC)c1OC [compound 15g]
< 4.40
COc1cccc(/C=C(/C(=O)O)c2cc(OC)c(OC)c(OC)c2)c1 [compound 23b]
< 4.40
COc1cc(/C=C\c2ccc(SC)cc2)cc(OC)c1OC [compound 15c]
5.21
CCN(CC)CCOc1ccc(CCc2cc(OC)c(OC)c(OC)c2)cc1 [17g]
< 4.40
COc1ccc(C(=O)c2nccc3c(OC)c(OC)c(OC)cc23)cc1 [compound 39]
< 4.40
COc1cc(CCc2ccc(SC)cc2)cc(OC)c1OC [17c]
< 4.40
CCOc1ccc(CCc2cc(OC)c(OC)c(OC)c2)cc1 [17a]
5.00
COc1cc(CCc2ccc(OCCN(C)C)cc2)cc(OC)c1OC [17f]
< 4.40
CCN(CC)CCOC(=O)/C(=C/c1ccc(OC)cc1)c1cc(OC)c(OC)c(OC)c1 [24e]
< 4.40

====

A collection of molecules and their measured GI50
System: CAKI-1 renal cancer
Assay: Cytotoxicity, CAKI-1
Settings: read-out: cytotoxicity GI50, CAKI-1; 50% growth inhibition; average of two determinations; 8640 min
parameter-measured: GI50

COc1cc(C=Nc2ccc(C(C)C)cc2)cc(OC)c1OC [108f]
> 100 µM
CCCc1ccc(N=Cc2cc(OC)c(OC)c(OC)c2)cc1 [108g]
> 100 µM
COc1ccc(N=Cc2cc(OC)c(OC)c(OC)c2)cc1 [108c]
> 100 µM
CCc1ccc(N=Cc2cc(OC)c(OC)c(OC)c2)cc1 [108b]
> 100 µM
CCOc1ccc(N=Cc2cc(OC)c(OC)c(OC)c2)cc1 [108d]
> 100 µM
CCOc1ccc(NCc2cc(OC)c(OC)c(OC)c2)cc1 [109d]
2.04 µM
CCc1ccc(NCc2cc(OC)c(OC)c(OC)c2)cc1 [109b]
0.354 µM
